Measured values drawn from patent US20070213359A1 for this set.

Biological target: Ghrelin receptor (Homo sapiens, UniProt Q92847)
Sequence (Q92847 whole entry): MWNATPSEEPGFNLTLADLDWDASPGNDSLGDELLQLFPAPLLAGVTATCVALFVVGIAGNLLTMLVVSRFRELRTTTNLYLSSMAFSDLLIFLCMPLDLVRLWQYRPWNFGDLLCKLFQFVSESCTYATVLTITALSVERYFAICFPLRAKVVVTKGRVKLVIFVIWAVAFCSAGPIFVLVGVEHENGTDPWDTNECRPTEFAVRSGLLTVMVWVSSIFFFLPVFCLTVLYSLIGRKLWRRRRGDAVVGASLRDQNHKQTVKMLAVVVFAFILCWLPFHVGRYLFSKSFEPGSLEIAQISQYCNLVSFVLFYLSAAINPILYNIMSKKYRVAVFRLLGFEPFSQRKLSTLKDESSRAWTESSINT
Experiment: Receptor Selection and Amplification Technology (R-SAT) assay
Format: cell-based
Design: expressed in transfected cells; host or cells: NIH3T3
Details: negative logarithm of ligand concentration causing 50% inhibition of constitutive receptor response; transfected NIH3T3 cells; '—' not defined (nd used separately); read-out: RSAT pIC50 (converted)
Can you tell me IC50 for the items I'm about to list?
Numbers only, in nM.

Reference set, count: 2
CC(=O)c1cn(CC(O)CN2CCC(Oc3ccc(F)cc3)CC2)c2ccccc12 (stereo not drawn)    200
CC(=O)c1cn(CCCN2CCN(CCOc3ccccc3)CC2)c2c(Cl)cccc12    200

Shifting focus to the molecule that follows.
Notebook: CCc1cccc2c(C(C)=O)cn(CCCN3C4CCC3CC(Oc3ccc(F)cc3)C4)c12 (stereo not drawn) , IC50 read as 200
